B1: FAM98B (parent)
chain: QLDKNSEVYQEVQAMFDTLGIPKS

# Variants of: B1
# test-summary: protein stability index of a GFP-peptide fusion (GPS, HEK-293T) (PSI 1-6); higher = more stable;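 also: lentivirally expressed fusions sorted by FACS into six bins by GFP to DsRed ratio, PSI derived from sequencing read proportions per bin multiplied by bin number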
# settings: c terminus: a fixed tail appended
protein stability index by entry:
Number only, no unit.

A selection of reference data follows.
> print(dat)
                 sequence.content  test.value
1  QLDKNSSVYQEVQAMFDTLGIPKS [E7S]        2.77
2  QLDKNTEVYQEVQAMFDTLGIPKS [S6T]        3.53
3  QLDKFSEVYQEVQAMFDTLGIPKS [N5F]        3.41

-- ask Quick one: protein stability index of QLDKNSEVYQEVQAMFDTLWIPKS [G20W] ?
-- reply 3

-- ask Quick one: protein stability index of QLDKNSEVYQEVQAMADTLGIPKS [F16A] ?
-- reply 3.82
